The measurements presented in this section are drawn from ChEMBL document CHEMBL2016570.

Test system: MCF7
Experiment: Antiproliferative activity against human MCF7 cells after 48 hrs by MTT assay
Type: functional, cell-based
Conditions: MCF7, 48 h
# note: boundary value 4 µM maps to 0.0; IC50 below it maps to 1.0

Smiles entry: O=C(Nc1nnc(-c2ccc(F)cc2)s1)c1ccccc1
Label value: 0.0

Smiles entry: O=C(Cc1ccccc1)Nc1nnc(-c2ccc(Cl)cc2)s1
Label value: 0.0

Smiles entry: O=C(Nc1nnc(-c2ccccc2)s1)c1cccnc1
Label value: 0.0

Smiles entry: O=C(Nc1nnc(-c2ccc(Cl)cc2)s1)c1cc(Br)ccc1O
Label value: 1.0

Smiles entry: CN[C@@H]1C[C@H]2O[C@@](C)([C@@H]1OC)n1c3ccccc3c3c4c(c5c6ccccc6n2c5c31)C(=O)NC4
Label value: 1.0

Smiles entry: O=C(Nc1nnc(-c2ccccc2)s1)c1ccc(F)cc1
Label value: 0.0

Smiles entry: O=C(Nc1nnc(-c2ccccc2)s1)c1ccc(Cl)cc1
Label value: 0.0

Smiles entry: COc1ccc(C(=O)Nc2nnc(-c3ccccc3)s2)cc1
Label value: 1.0

----------
Items are presented alongside their recorded pIC50.
Tested on: MCF7
Assay: Antiproliferative activity against human MCF7 cells after 48 hrs by MTT assay
Format: functional, cell-based
Details: MCF7, 48 h
pIC50: −log10 of the molar value.
Quantity: pIC50

Smiles entry: Cc1ccc(-c2nnc(NC(=O)c3ccccc3)s2)cc1
Quantity: pIC50
Numeric value: 5.45
--
Smiles entry: COc1ccc(-c2nnc(NC(=O)c3cccnc3)s2)cc1
Quantity: pIC50
Numeric value: 5.52
--
Smiles entry: O=C(Nc1nnc(-c2ccc(Cl)cc2)s1)c1ccccc1O
Quantity: pIC50
Numeric value: 5.99
--
Smiles entry: O=C(Nc1nnc(-c2ccc(Cl)cc2)s1)c1ccccc1
Quantity: pIC50
Numeric value: 5.31
--
Smiles entry: O=C(Nc1nnc(-c2ccc(F)cc2)s1)c1cc(Br)ccc1O
Quantity: pIC50
Numeric value: 6.07
--
Smiles entry: COc1ccc(-c2nnc(NC(=O)c3ccccc3O)s2)cc1
Quantity: pIC50
Numeric value: 5.66

----------
Items are presented alongside their recorded IC50.
System: MCF7
Assay: Antiproliferative activity against human MCF7 cells after 48 hrs by MTT assay
Type: functional, cell-based
Conditions: MCF7, 48 h
Quantity: IC50 (nM)

Smiles entry: O=C(Nc1nnc(-c2ccccc2)s1)c1ccccc1O
Measure unit: nM
Numeric value: 2760
//
Smiles entry: O=C(Nc1nnc(-c2ccccc2)s1)c1ccccc1
Measure unit: nM
Numeric value: 5870
//
Smiles entry: Cc1ccc(C(=O)Nc2nnc(-c3ccccc3)s2)cc1
Measure unit: nM
Numeric value: 3280
//
Smiles entry: O=C(Nc1nnc(-c2ccc(Cl)cc2)s1)c1cc(Cl)ccc1O
Measure unit: nM
Numeric value: 450
//
Smiles entry: COc1ccc(-c2nnc(NC(=O)c3ccccc3)s2)cc1
Measure unit: nM
Numeric value: 1550
//
Smiles entry: O=C(Nc1nnc(-c2ccc(F)cc2)s1)c1cc(Cl)ccc1O
Measure unit: nM
Numeric value: 750
//
Smiles entry: Cc1ccc(-c2nnc(NC(=O)c3ccccc3O)s2)cc1
Measure unit: nM
Numeric value: 2360
//
Smiles entry: O=C(Cc1ccccc1)Nc1nnc(-c2ccc(Br)cc2)s1
Measure unit: nM
Numeric value: 7520
//
Smiles entry: O=C(Nc1nnc(-c2ccc(F)cc2)s1)c1ccccc1O
Measure unit: nM
Numeric value: 1210
//
Smiles entry: O=C(Nc1nnc(-c2ccccc2)s1)c1cc(Br)ccc1O
Measure unit: nM
Numeric value: 1280
//
Smiles entry: O=C(Nc1nnc(-c2ccccc2)s1)c1cc(Cl)ccc1O
Measure unit: nM
Numeric value: 1120
//
Smiles entry: Cc1ccc(-c2nnc(NC(=O)c3cccnc3)s2)cc1
Measure unit: nM
Numeric value: 4520
